Reference source: patent US20120214847A1

pKi: recorded values
# target: glucocorticoid receptor (Homo sapiens, UniProt P04150)
# Construct: endogenous in cells
# Sequence (P04150 1-777): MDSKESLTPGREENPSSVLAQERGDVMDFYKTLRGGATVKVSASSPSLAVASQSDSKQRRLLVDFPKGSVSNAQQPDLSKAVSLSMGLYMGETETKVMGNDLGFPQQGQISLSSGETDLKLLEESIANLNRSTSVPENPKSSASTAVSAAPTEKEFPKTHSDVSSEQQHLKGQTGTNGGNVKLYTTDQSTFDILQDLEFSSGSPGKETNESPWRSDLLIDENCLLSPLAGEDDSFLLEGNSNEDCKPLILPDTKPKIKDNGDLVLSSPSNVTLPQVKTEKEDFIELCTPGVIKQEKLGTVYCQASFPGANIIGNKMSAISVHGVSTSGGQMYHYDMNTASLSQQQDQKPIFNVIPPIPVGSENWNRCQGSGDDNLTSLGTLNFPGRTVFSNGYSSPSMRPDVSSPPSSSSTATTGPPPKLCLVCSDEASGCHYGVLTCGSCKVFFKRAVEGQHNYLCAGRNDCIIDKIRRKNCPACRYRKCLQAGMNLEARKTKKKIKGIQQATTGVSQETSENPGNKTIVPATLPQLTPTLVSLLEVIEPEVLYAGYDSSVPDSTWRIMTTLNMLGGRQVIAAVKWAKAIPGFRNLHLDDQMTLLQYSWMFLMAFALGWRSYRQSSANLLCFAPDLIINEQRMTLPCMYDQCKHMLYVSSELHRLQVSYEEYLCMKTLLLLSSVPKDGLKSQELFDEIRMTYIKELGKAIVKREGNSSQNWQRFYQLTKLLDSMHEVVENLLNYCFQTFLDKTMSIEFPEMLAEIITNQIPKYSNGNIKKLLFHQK
# protocol: Ligand binding assay (GRBind), 3H-dexamethasone displacement in HeLa cell lysate
# condition_set: 3H-DEX tracer
pKi: −log10 of the molar value.
endpoint: pKi

compound	endpoint	measured_value
COc1ccnc(CC[C@]2(O)CCC3=Cc4c(cnn4-c4ccc(F)cc4)C[C@@]32C2CC2)c1C(N)=O	pKi	8.61
CC[C@]12Cc3cnn(-c4ccc(F)cc4)c3C=C1CC[C@@]2(O)CC(O)c1c(F)ccnc1Cl (stereo partly shown)	pKi	8.03
CC[C@]12Cc3cnn(-c4ccc(F)cc4)c3C=C1CC[C@@]2(O)CC(O)c1ccc(F)cn1 (single isomer, unassigned) [Example 69a]	pKi	8.36
NC(=O)c1cc(F)cnc1CC[C@]1(O)CCC2=Cc3c(cnn3-c3ccc(F)cc3)C[C@@]21C1CC1	pKi	8.70
CC[C@]12Cc3cnn(-c4ccc(F)cc4)c3C=C1CC[C@@]2(O)CCc1nccc(C2CC2)c1C(=O)OC	pKi	8.58
O[C@@]1(CCc2cc(C(F)(F)F)ccn2)CCC2=Cc3c(cnn3-c3ccc(F)cc3)C[C@@]21C1CC1	pKi	8.65
CC[C@]12Cc3cnn(-c4ccccc4)c3C=C1CC[C@@]2(O)CC(O)c1ccccn1 (single isomer, unassigned) [Example 67a]	pKi	7.95

* * *

# target: human GR (Homo sapiens)
# Construct: naturally expresses the human GR; endogenous in cells
# protocol: Transrepression assay (GITAR), TNFα-β-lactamase reporter in U937 cells
# Format: cell-based
# condition_set: U937 cells; activity repressed by 100 nM dexamethasone alone set as 100%
endpoint: Transrepression U937 Cells GITAR Emax (%)

molecule	measured_value
CC[C@]12Cc3cnn(-c4ccc(F)cc4)c3C=C1CC[C@@]2(O)CC(O)c1ncccc1F (some centres unmarked) [Example 77]	60%
CC[C@]12Cc3cnn(-c4ccccc4)c3C=C1CC[C@@]2(O)CC(O)c1ccccn1 (single isomer, unassigned) [Example 67b]	44%
CC[C@]12Cc3cnn(-c4ccccc4)c3C=C1CC[C@@]2(O)CC(O)c1ccccn1 (single isomer, unassigned) [Example 82b]	44%
OC(C[C@]1(O)CCC2=Cc3c(cnn3-c3ccc(F)cc3)C[C@@]21C1CC1)c1ccc(F)cn1 (single isomer, unassigned) [Example 79b]	54%
CC[C@]12Cc3cnn(-c4ccc(F)cc4)c3C=C1CC[C@@]2(O)CCc1ccccc1C(O)C(N)=O (some centres unmarked) [Example 26]	86%
CC[C@]12Cc3cnn(-c4ccc(F)cc4)c3C=C1CC[C@@]2(O)CC(O)c1ccc(F)cn1 (single isomer, unassigned) [Example 69b]	80%
CC[C@]12Cc3cnn(-c4ccccc4)c3C=C1CC[C@@]2(O)CC(O)c1ccccn1 (single isomer, unassigned) [Example 82a]	54%
NC(=O)C(O)c1ccccc1CC[C@]1(O)CCC2=Cc3c(cnn3-c3ccc(F)cc3)C[C@@]21C1CC1 (single isomer, unassigned) [Example 3a]	72%
